Recorded values, source PubChem BioAssay (NCI).

Answer each item with its documented TGI.
# Tested on: SNB-19 CNS
# Assay Remarks: NCI tumour cell line growth inhibition, 48 h

Go through the list and state TGI for each entry.
1. O=C(c1cccc(C(=O)c2ccc3c4c(cccc24)C(=O)N(c2ccccc2)C3=O)c1)c1ccc2c3c(cccc13)C(=O)N(c1ccccc1)C2=O
2. O=C1/C(=C/c2ccco2)N=C(c2ccccc2)N1c1cc2cc(Sc3ccccc3)ccc2[nH]1
3. CCN1C(=O)N(c2ccccc2)C2NN=c3s/c(=C4\C(=O)N(C(C)C)c5ccccc54)c(=O)n3C21 (centres undefined)
4. O=C(CCCCCCSc1nc(-c2ccc(Cl)cc2)cc(-c2ccc(Cl)cc2)n1)NO

["> 100 µM", "> 25 µM", "> 100 µM", "20.4 µM"]

Go through the list and state TGI for each entry.
1. CS(=O)(=O)CCNCc1ccc(-c2ccc3ncnc(Nc4ccc(OCc5ccccc5)c(Cl)c4)c3c2)o1
2. COc1ccc2c(c1)CCC1=CC3(CCC12C)SCCS3 (centres undefined)

["> 25 µM", "> 10 µM"]

Go through the list and state TGI for each entry.
1. NC(N)=NCCCC(NC(=O)OCCCCCCn1ccc(N)nc1=O)C(=O)O (centres undefined)
2. Cc1cc(C)c(S(=O)(=O)ONC(=O)OC(C)(C)C)c(C)c1
3. O=[N+]([O-])c1ccc2ncccc2c1Cl

> 100 µM
> 100 µM
23.4 µM
